Test system: U2OS
assay-details: cell viability relative to DMSO; higher = less toxic
conditions: 72 h; 10000 nM
assay-endpoint: cell viability (%)

>  <compound>
NCCCCN

>  <assay-endpoint>
cell viability

>  <units-label>
%

>  <experimental-result>
96.7

$$$$
>  <compound>
NC(=O)CC[C@H](N)C(=O)O

>  <assay-endpoint>
cell viability

>  <units-label>
%

>  <experimental-result>
93

$$$$
>  <compound>
CC[C@H]1[C@@H]2C[C@H]3[C@@H]4N(C)c5ccccc5[C@]45C[C@@H]([C@@H]2[C@H]5O)N3[C@@H]1O

>  <assay-endpoint>
cell viability

>  <units-label>
%

>  <experimental-result>
97.5

$$$$
>  <compound>
O=C(Nc1ccccc1)N[C@H]1C[C@H](C(=O)O)Nc2cc(Cl)cc(Cl)c21

>  <assay-endpoint>
cell viability

>  <units-label>
%

>  <experimental-result>
100

$$$$
>  <compound>
CC[N+](CC)(CC)CCOc1ccc(/C=C/c2ccccc2)cc1

>  <assay-endpoint>
cell viability

>  <units-label>
%

>  <experimental-result>
93

$$$$
>  <compound>
CN1C(=O)C(Cc2c[nH]c3ccccc23)NC1=S (stereo not given)

>  <assay-endpoint>
cell viability

>  <units-label>
%

>  <experimental-result>
95.1

$$$$
>  <compound>
COc1ccccc1N1CCN(CCCCNC(=O)c2ccc(-c3ccc(C(C)=O)cc3)cc2)CC1

>  <assay-endpoint>
cell viability

>  <units-label>
%

>  <experimental-result>
101

$$$$
>  <compound>
CC1CC(OC(=O)C(O)c2ccccc2)CC(C)(C)C1 (stereo not given) [cyclandelate]

>  <assay-endpoint>
cell viability

>  <units-label>
%

>  <experimental-result>
97.5

$$$$
>  <compound>
N=C(N)N/N=C/c1c(Cl)cccc1Cl [guanaben-acetate]

>  <assay-endpoint>
cell viability

>  <units-label>
%

>  <experimental-result>
91.5

$$$$
>  <compound>
CC(=O)Oc1ccccc1C(=O)Nc1ncc([N+](=O)[O-])s1 [nitazoxanide]

>  <assay-endpoint>
cell viability

>  <units-label>
%

>  <experimental-result>
91.4

$$$$

* * *

Tested on: Caco-2
assay-details: cell viability relative to DMSO; higher = less toxic
conditions: 72 h; 1 nM
assay-endpoint: cell viability (%)

>  <compound>
CC(C)[C@H]1c2ccc(F)cc2CC[C@@]1(CCN(C)CCCc1nc2ccccc2[nH]1)OC(=O)C1CC1

>  <experimental-result>
85.5

$$$$
>  <compound>
COC(=O)C1=C(C)NC(C)=C(C(=O)OCCN(C)Cc2ccccc2)C1c1cccc([N+](=O)[O-])c1 (stereo not drawn)

>  <experimental-result>
102

$$$$
>  <compound>
CCOC(=O)c1ccc(N(C)c2csc(-c3ccccc3)n2)cc1

>  <experimental-result>
92.9

$$$$
>  <compound>
CCOC(=O)C1=C(COCCN)NC(C)=C(C(=O)OC)C1c1ccccc1Cl (stereo not drawn)

>  <experimental-result>
97.9

$$$$
>  <compound>
CC(C)C[C@H](NC(=O)[C@@H](COC(C)(C)C)NC(=O)[C@H](Cc1ccc(O)cc1)NC(=O)[C@H](CO)NC(=O)[C@H](Cc1c[nH]c2ccccc12)NC(=O)[C@H](Cc1cnc[nH]1)NC(=O)[C@@H]1CCC(=O)N1)C(=O)N[C@@H](CCCNC(=N)N)C(=O)N1CCC[C@H]1C(=O)NNC(N)=O [goserelin-acetate]

>  <experimental-result>
96.9

$$$$
>  <compound>
CN1[C@@H]2CC[C@H]1C[C@@H](OC(=O)c1c[nH]c3ccccc13)C2

>  <experimental-result>
102

$$$$
>  <compound>
C[C@@H](CN(C)C)CN1c2ccccc2Sc2ccccc21 (racemic)

>  <experimental-result>
112

$$$$
>  <compound>
O=C(/C=C/C=C/c1ccc2c(c1)OCO2)N1CCCCC1

>  <experimental-result>
94.4

$$$$
>  <compound>
CC1=C(/C=C/C(=C/C=C/C(C)=C/C(=O)O)c2ccc(C)cc2)C(C)(C)CCC1

>  <experimental-result>
90.9

$$$$
>  <compound>
CC(C)(C)C1CCc2c(sc(NC(=O)c3ccco3)c2C(=O)O)C1 (stereo not drawn)

>  <experimental-result>
102

$$$$
>  <compound>
CCN1C[C@]2(OC(=O)c3ccccc3NC(C)=O)CC[C@H](OC)[C@@]34[C@@H]2C[C@@H]([C@@H]13)[C@@]1(O)C[C@H](OC)[C@H]2C[C@@H]4[C@]1(O)[C@H]2OC

>  <experimental-result>
87.7

$$$$
>  <compound>
CCC1(C2=NCCN2)Cc2ccccc2O1 (stereo not drawn)

>  <experimental-result>
102

$$$$
>  <compound>
Cc1ccc(OCCSc2ncccn2)c(Br)c1

>  <experimental-result>
99.2

$$$$
>  <compound>
NC(=O)[C@@H](CC1CC1)[C@@H](CCC(F)(F)F)C(=O)N[C@H]1N=C(c2ccccc2)c2cccc(F)c2NC1=O

>  <experimental-result>
97.7

$$$$
>  <compound>
CC12CCC(C(=O)N(CCCCN3CCN(c4ccccn4)CC3)C1=O)C2(C)C (stereo not drawn)

>  <experimental-result>
87.3

$$$$
>  <compound>
O=C(Nc1ccc(-c2ccnc(Nc3ccc(N4CCOCC4)cc3)n2)cc1)C1CCCN1 (stereo not drawn)

>  <experimental-result>
89.4

$$$$
>  <compound>
C[C@@H]1O[C@@H]1P(=O)(O)O

>  <experimental-result>
97.3

$$$$
>  <compound>
CN(C)c1ccc(/C=C2\C(=O)Nc3ccccc32)cc1

>  <experimental-result>
96.3

$$$$
>  <compound>
CCN(CCCc1ccccc1)CCCc1ccccc1

>  <experimental-result>
101

$$$$
>  <compound>
NC(=O)[C@@H](CCC(F)(F)F)N(Cc1ccc(-c2ncon2)cc1F)S(=O)(=O)c1ccc(Cl)cc1

>  <experimental-result>
103

$$$$
>  <compound>
O=C1Cc2cc(CCN3CCN(c4nsc5ccccc45)CC3)c(Cl)cc2N1

>  <experimental-result>
100

$$$$
>  <compound>
O=C(O)c1ccccc1-c1ccc(C(F)(F)F)cc1

>  <experimental-result>
97.1

$$$$
>  <compound>
Nc1ncnc2c1ncn2[C@@H]1O[C@H](COP(=O)(O)OP(=O)(O)OP(=O)(O)O)[C@@H](O)[C@H]1O [ADENOSINE TRIPHOSPHATE DISODIUM]

>  <experimental-result>
95.3

$$$$
>  <compound>
CC(O)CC(=O)O (stereo not drawn) [beta-hydroxybutyrate]

>  <experimental-result>
114

$$$$
>  <compound>
CCOc1cc(OCC)c(C(=O)CCC(=O)O)cc1OCC [trepibutone]

>  <experimental-result>
98.6

$$$$
>  <compound>
CCS(=O)(=O)Nc1ccc2c(c1)/C(=C(/Nc1ccc(CN3CCCCC3)cc1)c1ccccc1)C(=O)N2

>  <experimental-result>
95.1

$$$$
>  <compound>
O=C(NCC(=O)N1CCCC1)Nc1ccc2cnccc2c1

>  <experimental-result>
98.1

$$$$
>  <compound>
CC(C)Nc1cccnc1N1CCN(C(=O)c2cc3cc(NS(C)(=O)=O)ccc3[nH]2)CC1

>  <experimental-result>
99.4

$$$$
>  <compound>
CCOC(=O)[C@H](CCc1ccccc1)N[C@@H](C)C(=O)N1C(=O)N(C)C[C@H]1C(=O)O

>  <experimental-result>
95.1

$$$$
>  <compound>
N#Cc1c(N)nc(SCC(N)=O)c(C#N)c1-c1ccc(OCC2CC2)cc1

>  <experimental-result>
104

$$$$
>  <compound>
CCN(CC)CCOc1ccc(Cc2ccccc2)cc1

>  <experimental-result>
100

$$$$
>  <compound>
C[N+](C)(C)CCOC(=O)CCC(=O)OCC[N+](C)(C)C [succinylcholine-chloride]

>  <experimental-result>
103

$$$$
>  <compound>
N#Cc1cccc(C(=O)Nc2cc(-c3ccccc3)nn2-c2ccccc2)c1

>  <experimental-result>
93.3

$$$$

* * *

Tested on: Caco-2
assay-details: cell viability relative to DMSO; higher = less toxic
conditions: 72 h; 1 nM

>  <molecule>
Clc1ccccc1C(c1ccccc1)(c1ccccc1)n1ccnc1 [clotrimazole]

>  <cell viability (%)>
96

$$$$
>  <molecule>
CC(C)OC(=O)[C@H](C)N[P@@](=O)(OC[C@H]1O[C@@H](n2ccc(=O)[nH]c2=O)[C@](C)(F)[C@@H]1O)Oc1ccccc1 [PSI-7976]

>  <cell viability (%)>
105

$$$$
>  <molecule>
O=c1c(-c2ccccc2)c1-c1ccccc1 [diphencyprone]

>  <cell viability (%)>
110

$$$$
>  <molecule>
Nc1ncnc2c1c(-c1cccc(OCc3ccccc3)c1)cn2[C@H]1C[C@@H](CN2CCC2)C1 [NVP-AEW541]

>  <cell viability (%)>
99.8

$$$$

* * *

Test system: Vero E6
assay-details: cell viability relative to DMSO; higher = less toxic
conditions: 72 h; 1 nM
assay-endpoint: cell viability (%)

>  <compound>
O=c1[nH]c(=O)n([C@H]2C[C@H](O)[C@@H](CO)O2)cc1C(F)(F)F

>  <assay-endpoint>
cell viability

>  <experimental-result>
101

$$$$
>  <compound>
COc1cccc(Nc2ncnn3ccc(CN4CC[C@@H](N)[C@H](O)C4)c23)c1

>  <assay-endpoint>
cell viability

>  <experimental-result>
100

$$$$
>  <compound>
NNC(=O)CN1C(=O)CN=C(c2ccccc2)c2cc(Br)ccc21

>  <assay-endpoint>
cell viability

>  <experimental-result>
99.3

$$$$
>  <compound>
CO[C@H]1C[C@H](O[C@H]2[C@H](C)O[C@@H](O[C@@H]3/C(C)=C/C[C@@H]4C[C@@H](C[C@]5(C=C[C@H](C)[C@@H](C6CCCCC6)O5)O4)OC(=O)[C@@H]4C=C(C)[C@@H](O)[C@H]5OC/C(=C\C=C\[C@@H]3C)[C@]54O)C[C@@H]2OC)O[C@@H](C)[C@@H]1O

>  <assay-endpoint>
cell viability

>  <experimental-result>
103

$$$$
>  <compound>
O=C(/C=C/C=C/c1ccc2c(c1)OCO2)N1CCCCC1

>  <assay-endpoint>
cell viability

>  <experimental-result>
108

$$$$
>  <compound>
COc1ccc2[nH]c(C(=O)c3ccccc3)cc2c1

>  <assay-endpoint>
cell viability

>  <experimental-result>
95.1

$$$$
>  <compound>
CN1C(=O)C(Cc2c[nH]c3ccccc23)NC1=S (stereo not drawn)

>  <assay-endpoint>
cell viability

>  <experimental-result>
95.8

$$$$
>  <compound>
COc1cc(CN2CCN(c3ccc(F)cc3)CC2)cc(OC)c1OC

>  <assay-endpoint>
cell viability

>  <experimental-result>
95.9

$$$$

Value source: the supplement of paper PMC13380429
